test: Antiproliferative activity against Chinese hamster CHL cells after 72 hrs by Celltiter-Glo assay; conditions: Cricetulus griseus
// values below are reported GI50
EXPERIMENTAL_READOUT: GI50

{"MOLECULE": "COCCN[C@H]1CC[C@H](Oc2cc(-c3csc(NCC4CCOCC4)n3)c(Cl)cn2)CC1", "EXPERIMENTAL_READOUT": "GI50", "RECORDED_RESULT": "> 10 µM"}
{"MOLECULE": "CC(=O)N[C@H]1CC[C@H](Nc2cc(-c3csc(NCC4CCOCC4)n3)c(Cl)cn2)CC1", "EXPERIMENTAL_READOUT": "GI50", "RECORDED_RESULT": "> 10 µM"}
{"MOLECULE": "O=C(N[C@H]1CC[C@H](Nc2cc(-c3csc(NCC4CCOCC4)n3)c(Cl)cn2)CC1)C1CC1", "EXPERIMENTAL_READOUT": "GI50", "RECORDED_RESULT": "> 10 µM"}
{"MOLECULE": "COCCN[C@H]1CC[C@H](Nc2cc(-c3csc(NCC4CCOC4)n3)c(Cl)cn2)CC1 (stereo partly drawn)", "EXPERIMENTAL_READOUT": "GI50", "RECORDED_RESULT": "> 10 µM"}
{"MOLECULE": "COC[C@H](C)N[C@H]1CC[C@H](Nc2cc(-c3csc(NCC4CCOCC4)n3)c(Cl)cn2)CC1", "EXPERIMENTAL_READOUT": "GI50", "RECORDED_RESULT": "3.6 µM"}
{"MOLECULE": "COCCN[C@H]1CC[C@H](Nc2cc(-c3csc(NCC4CCCC4)n3)c(Cl)cn2)CC1", "EXPERIMENTAL_READOUT": "GI50", "RECORDED_RESULT": "> 10 µM"}
{"MOLECULE": "COCCCN[C@H]1CC[C@H](Nc2cc(-c3csc(NCC4CCOCC4)n3)c(Cl)cn2)CC1", "EXPERIMENTAL_READOUT": "GI50", "RECORDED_RESULT": "2.03 µM"}
{"MOLECULE": "COCCN[C@H]1CC[C@H](Nc2cc(-c3csc(NCC4C5CC6CC(C5)CC4C6)n3)c(Cl)cn2)CC1 (stereo partly drawn)", "EXPERIMENTAL_READOUT": "GI50", "RECORDED_RESULT": "2.04 µM"}
